Literature-derived log10(Ki) for Carbonic anhydrase 12 (Homo sapiens) follows.
METRIC: log10(Ki) (log10 of the value in nM)

MOLECULE: NS(=O)(=O)Nc1ccc(NC(=O)NCCc2ccccc2)cc1
METRIC: log10(Ki)
MEASURED VALUE: 0.95
//
MOLECULE: Cc1cc(=O)oc2cc(O)cc(O)c12
METRIC: log10(Ki)
MEASURED VALUE: 3.81
//
MOLECULE: NS(=O)(=O)Nc1ccc(NC(=O)Nc2cccc([N+](=O)[O-])c2)cc1
METRIC: log10(Ki)
MEASURED VALUE: 0.95
//
MOLECULE: COc1ccc(C)cc1NC(=O)Nc1ccc(NS(N)(=O)=O)cc1
METRIC: log10(Ki)
MEASURED VALUE: 1.43
//
MOLECULE: NS(=O)(=O)Nc1ccc(NC(=O)NCc2ccco2)cc1
METRIC: log10(Ki)
MEASURED VALUE: 1.04
//
MOLECULE: NS(=O)(=O)c1ccc(-c2cccc(C=O)c2)cc1
METRIC: log10(Ki)
MEASURED VALUE: -0.22
//
MOLECULE: Cc1cc(=O)oc2cc3ccccc3cc12
METRIC: log10(Ki)
MEASURED VALUE: 3.52
//
MOLECULE: CC(NC(=O)Nc1ccc(NS(N)(=O)=O)cc1)c1cccc2ccccc12 (stereo not given)
METRIC: log10(Ki)
MEASURED VALUE: 1.43
//
MOLECULE: NS(=O)(=O)Nc1ccc(NC(=O)NCc2ccccc2)cc1
METRIC: log10(Ki)
MEASURED VALUE: 0.95
//
MOLECULE: Cc1cc(=O)oc2c(O)c(O)ccc12
METRIC: log10(Ki)
MEASURED VALUE: 3.82
